Attribute: IC50
Target: HLA-B*0702 (Homo sapiens)
Test: In vitro class I HLA binding assay (fluorescence polarization competition)
Details: allele B*0702; fluorescence polarization competition; read-out: IC50 (nM), in vitro HLA binding affinity
Where a SMILES comes first, the peptide text is derived from it.
Value expressed in nM; do not type the unit.

molecule	target-or-test-system	numeric-result
CC(C)C[C@H](NC(=O)[C@H](CC(N)=O)NC(=O)[C@H](CCCCN)NC(=O)[C@H](CCCNC(=N)N)NC(=O)[C@@H]1CCCN1C(=O)[C@@H](N)CS)C(=O)N[C@@H](CCC(N)=O)C(=O)N[C@@H](CC(N)=O)C(=O)N[C@@H](C)C(=O)O [AMA1_302] (H-CPRKNLQNA-OH)	HLA-B*0702 (Homo sapiens)	484
CC(C)C[C@H](NC(=O)[C@H](CC(N)=O)NC(=O)[C@H](CCC(=O)O)NC(=O)[C@H](CCCCN)NC(=O)[C@H](CS)NC(=O)[C@@H](NC(=O)[C@H](CS)NC(=O)[C@H](CCC(=O)O)NC(=O)[C@@H]1CCCN1C(=O)[C@@H](N)CCCCN)C(C)C)C(=O)O [RIPR_0836] (H-KPECVCKENL-OH)	HLA-B*0702 (Homo sapiens)	206000
CC(C)C[C@H](NC(=O)[C@@H](NC(=O)[C@H](CO)NC(=O)[C@H](CCC(=O)O)NC(=O)[C@H](CS)NC(=O)[C@H](CC(=O)O)NC(=O)[C@H](CC(N)=O)NC(=O)[C@@H]1CCCN1C(=O)[C@@H](N)CCCNC(=N)N)C(C)C)C(=O)O [RIPR_0676] (H-RPNDCESVL-OH)	HLA-B*0702 (Homo sapiens)	377
CC[C@H](C)[C@H](NC(=O)[C@@H]1CCCN1C(=O)[C@@H](N)Cc1c[nH]cn1)C(=O)N[C@@H](CCC(=O)O)C(=O)N[C@H](C(=O)N[C@@H](CCC(=O)O)C(=O)N[C@@H](CC(N)=O)C(=O)N[C@@H](CC(N)=O)C(=O)N[C@@H](Cc1ccccc1)C(=O)O)C(C)C [AMA1_433] (H-HPIEVENNF-OH)	HLA-B*0702 (Homo sapiens)	310000
CC[C@H](C)[C@H](N)C(=O)N[C@H](C(=O)N[C@@H](CO)C(=O)N[C@@H](CC(=O)O)C(=O)N[C@@H](Cc1c[nH]cn1)C(=O)N[C@@H](CC(C)C)C(=O)N[C@@H](CCCNC(=N)N)C(=O)N[C@@H](CCC(N)=O)C(=O)N[C@@H](CCSC)C(=O)O)[C@@H](C)O [RH5_470] (H-ITSDHLRQM-OH)	HLA-B*0702 (Homo sapiens)	183000
CC(C)C[C@H](NC(=O)[C@H](CC(=O)O)NC(=O)[C@H](CC(N)=O)NC(=O)[C@H](CCCCN)NC(=O)[C@H](CCCCN)NC(=O)[C@H](CCCCN)NC(=O)[C@H](CC(N)=O)NC(=O)[C@H](CO)NC(=O)[C@@H]1CCCN1C(=O)[C@@H](N)[C@@H](C)O)C(=O)O [RH5_286] (H-TPSNKKKNDL-OH)	HLA-B*0702 (Homo sapiens)	1880

# context switch: different molecule, same IC50
Notebook: CC[C@H](C)[C@H](NC(=O)[C@H](CS)NC(=O)[C@@H](NC(=O)CNC(=O)[C@H](CC(N)=O)NC(=O)[C@H](CCC(=O)O)NC(=O)[C@H](CC(C)C)NC(=O)[C@@H](NC(=O)[C@@H](N)Cc1ccccc1)C(C)C)C(C)C)C(=O)O [RIPR_0745] (H-FVLENGVCI-OH) , IC50 read as 284000
